species: Homo sapiens; assay: Binding affinity to human telomeric quadruplex 5'-FAM-GGGTTAGGGTTAGGGTTAGGG-TAMRA-3' at 2 uM after 3 hrs by HT-FRET assay
VALUE_KIND: ΔTm (°C)

Observe how each entry below is paired with its result.
CN1CCN(CCCN2C(=O)c3cc(NCC4CCOCC4)c4c5c(cc(NCC6CCOCC6)c(c35)C2=O)C(=O)N(CCCN2CCN(C)CC2)C4=O)CC1 : 22
CN1CCN(CCCN2C(=O)c3cc(NC[C@@H]4CCCO4)c4c5c(cc(NC[C@H]6CCCO6)c(c35)C2=O)C(=O)N(CCCN2CCN(C)CC2)C4=O)CC1 : 15
CN1CCN(CCN2C(=O)c3cc(NCCCN4CCOCC4)c4c5c(cc(NCCCN6CCOCC6)c(c35)C2=O)C(=O)N(CCN2CCN(C)CC2)C4=O)CC1 : 31

A. CN1CCN(CCCN2C(=O)c3cc(NCCCN4CCOCC4)c4c5c(cc(NCCCN6CCOCC6)c(c35)C2=O)C(=O)N(CCCN2CCN(C)CC2)C4=O)CC1
B. COCCCNc1cc2c3c(c(NCCCOC)cc4c3c1C(=O)N(CCCN1CCN(C)CC1)C4=O)C(=O)N(CCCN1CCN(C)CC1)C2=O
[in] Task for the reader: decide whether A or B has the larger ΔTm. In your reply, give the label of the chosen option.
[out] A
